# System: LN-229
# ASSAY TEXT: Cytotoxicity against human LN229 cells after 48 hrs by CCK8 assay
# Type: functional, cell-based
# PARTICULARS: LN-229, 48 h
pIC50: −log10 of the molar value.
MEASUREMENT KIND: pIC50

CC(C)=CCc1cccc2[nH]c3c(c12)C[C@@H]1CC[C@@]2(O)[C@@]45O[C@@H]4[C@H](O)[C@@H](C(C)(C)O)O[C@H]5CC[C@]2(C)[C@@]31C; 4.42 to 4.79

Switching to the query record.
Param item = CC[C@@]1(O)C(=O)OCc2c1cc1n(c2=O)Cc2cc3ccccc3nc2-1 ; retrieve measured pIC50. 7.50 to 9.49
